This collection of values is drawn from ChEMBL document CHEMBL1123157.

target: Thromboxane-A synthase (Rattus norvegicus) (UniProt P49430); test: Inhibitory activity for thromboxane synthetase determined by TXB2 levels in platelets from spontaneously hypertensive rats.; design: concentration or dose not given beside the values; conditions: concentration not given here
Sequence (P49430 whole entry): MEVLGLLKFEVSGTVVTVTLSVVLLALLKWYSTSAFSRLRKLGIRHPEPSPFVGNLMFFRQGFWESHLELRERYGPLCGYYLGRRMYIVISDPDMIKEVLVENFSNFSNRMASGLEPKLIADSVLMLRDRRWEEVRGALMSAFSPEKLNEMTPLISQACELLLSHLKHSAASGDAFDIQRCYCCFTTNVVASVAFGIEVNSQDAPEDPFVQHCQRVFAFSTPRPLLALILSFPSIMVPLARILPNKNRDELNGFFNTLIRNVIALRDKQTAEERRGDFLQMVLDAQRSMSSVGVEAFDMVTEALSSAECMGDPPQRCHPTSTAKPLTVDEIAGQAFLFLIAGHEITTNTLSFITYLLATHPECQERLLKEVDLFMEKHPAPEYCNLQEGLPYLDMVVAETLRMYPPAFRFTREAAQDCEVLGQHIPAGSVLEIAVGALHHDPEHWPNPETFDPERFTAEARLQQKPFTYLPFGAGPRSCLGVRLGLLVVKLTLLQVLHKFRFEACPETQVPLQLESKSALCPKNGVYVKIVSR
Each entry below carries its recorded inhibition.
Write the value in % as a bare number.

Give the value of inhibition reported for the following: CC(CNC(=O)c1ccc(Cl)c(Cl)c1)Cn1ccnc1 (stereo not drawn) 86

Please give the documented inhibition of O=C(NCCCn1cncn1)c1cccc(Cl)c1 86

Name the recorded inhibition of the item CC(CCNC(=O)c1ccc(Cl)cc1)n1ccnc1 (stereo not drawn) in your answer. 96

---

tested on: Rattus norvegicus; experiment: Antihypertensive activity in spontaneously hypertensive rats at 100 mg/kg po/day for 2 days; assay type: functional, organism-based; parameters: dose 100 mg/kg
Calls of active or inactive are those of the source. No cut-off for these calls is given here.
QUANTITY KIND: Activity

Would you please look over these solved cases?
INSERT INTO results (substance_smiles, measured_target, quantity_kind, endpoint_result) VALUES
  ('CN(C)c1ccc(C(=O)NCCCn2cncn2)cc1', 'Rattus norvegicus', 'Activity', 'Active'),
  ('Nc1ccccc1C(=O)NCCCn1ccnc1', 'Rattus norvegicus', 'Activity', 'Active'),
  ('Cc1ccc(CC(=O)NCCCn2ccnc2)cc1', 'Rattus norvegicus', 'Activity', 'Active'),
  ('Cc1cn(CCCNC(=O)c2ccc(Cl)cc2)cn1', 'Rattus norvegicus', 'Activity', 'Active'),
  ('Cc1nccn1CCCNC(=O)c1ccc(C(F)(F)F)cc1', 'Rattus norvegicus', 'Activity', 'Active'),
  ('O=C(NCCCn1ccnc1)c1ccc(Br)cc1', 'Rattus norvegicus', 'Activity', 'Active');

We now examine a further compound.
For the compound O=C(NCCCn1cnc(-c2ccccc2)c1)c1ccc(Cl)cc1 , give its measured Activity value. Active
